biological target: S1PR2 (Homo sapiens); construct: purchased; experiment: competitive [^32P]S1P binding assay on cell membranes, S1PR2; conditions: Table 5; read-out: IC50 S1PR2
Sequence (O95136 whole entry): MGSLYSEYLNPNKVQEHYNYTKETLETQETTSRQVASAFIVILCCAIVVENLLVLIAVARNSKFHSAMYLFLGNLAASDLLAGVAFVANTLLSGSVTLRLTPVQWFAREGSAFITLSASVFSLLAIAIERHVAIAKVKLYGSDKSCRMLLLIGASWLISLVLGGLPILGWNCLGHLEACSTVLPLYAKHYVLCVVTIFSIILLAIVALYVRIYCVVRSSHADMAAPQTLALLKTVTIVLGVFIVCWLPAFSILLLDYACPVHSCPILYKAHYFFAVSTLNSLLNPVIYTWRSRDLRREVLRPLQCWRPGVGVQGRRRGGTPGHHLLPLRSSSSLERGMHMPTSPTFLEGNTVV
parameter: IC50

Prompt: Requested field: IC50. Item: COc1ccc(-n2c(=O)c3ccccc3n(CC(=O)Nc3cc(Cl)c(OC)cc3OC)c2=O)cc1 [TZ59-110]
Response: > 1 µM

----------
Target: S1PR4 (Homo sapiens, UniProt O95977)
Construct: purchased
Sequence (O95977 1-384): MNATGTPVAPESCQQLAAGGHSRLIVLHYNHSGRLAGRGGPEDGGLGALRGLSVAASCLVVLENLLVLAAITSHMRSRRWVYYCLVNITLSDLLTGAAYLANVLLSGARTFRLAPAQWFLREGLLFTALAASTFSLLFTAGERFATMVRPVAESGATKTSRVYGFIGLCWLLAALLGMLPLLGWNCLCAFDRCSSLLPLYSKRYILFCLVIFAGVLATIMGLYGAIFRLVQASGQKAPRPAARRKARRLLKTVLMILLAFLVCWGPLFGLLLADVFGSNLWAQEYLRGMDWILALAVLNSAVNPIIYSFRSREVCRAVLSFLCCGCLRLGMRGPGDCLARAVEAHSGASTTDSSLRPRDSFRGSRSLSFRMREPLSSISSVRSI
Assay: competitive [^32P]S1P binding assay on cell membranes, S1PR4
Conditions: [^32P]S1P competition, Table 2
parameter: IC50

Prompt: # value lookup — system S1PR4 (Homo sapiens, UniProt O95977), readout IC50, item Cc1nn(C)c2nc(NNC(=O)Nc3cc(Cl)nc(Cl)c3)cc(C(C)C)c12 [JTE-013, reference compound]
Response: > 1 µM
